I'd be grateful if you could share measured viability, T/C for these entries.
# Tested on: HOP-62 complex spheroids with HUVEC/MSC, viability
# PROCEDURE SUMMARY: Anticancer human tumor HOP-62 cell line growth inhibition [RAS];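 note: spheroids exposed to agents for seven days before readout; 100% = DMSO vehicle control viability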
# CONDITIONS: second compound 0.03 µM; first compound 3.16 µM; active compounds read low
# Text: RAS pathway inhibitors in Combinations in Complex Spheroids A high-throughput screen of multi-cell type tumor spheroids was designed to identify active combinations of RAS pathway inhibitors and targeted small molecules. Complex spheroids include a stromal component modeled by human endothelial cells (HUVEC) and fibroblasts modeled by human mesenchymal stem cells (MSCs). […] Compounds. […] If the clinical Cmax for an agent had not been determined, the highest concentration tested was 10 microM. […]

Query: Fill in the blank: the reported viability, T/C of CC(C)NCC(C(=O)N1CCN(c2ncnc3c2C(C)CC3O)CC1)c1ccc(Cl)cc1 (configuration not stated) + CCn1c(-c2cccnc2C(C)OC)c2c3cc(ccc31)N1CCOC(CC(NC(=O)C(C(C)C)N(C)C(=O)C3(F)CCN(C(=O)C#CC(C)(C)N(C)C)CC3)C(=O)N3CCCC(N3)C(=O)OCC(C)(C)C2)C1 is ____.
Reply: 28.3%

Query: Then CC(=O)OC12COC1CC(O)C1(C)C(=O)C(O)C3=C(C)C(OC(=O)C(O)C(NC(=O)OC(C)(C)C)c4ccccc4)CC(O)(C(OC(=O)c4ccccc4)C21)C3(C)C (configuration not stated) + CCn1c(-c2cccnc2C(C)OC)c2c3cc(ccc31)N1CCOC(CC(NC(=O)C(C(C)C)N(C)C(=O)C3(F)CCN(C(=O)C#CC(C)(C)N(C)C)CC3)C(=O)N3CCCC(N3)C(=O)OCC(C)(C)C2)C1 ?
Reply: 33.1%

All values here come from PubChem BioAssay AID2060892.
